Task for the reader: assign each of the following molecules its reported melting point.

Exercise: // returns reported melting point for input `O=C(NCCN1CCC2(CC1)C(=O)NCN2c1ccccc1)c1cccs1`
Solution: 194 °C

Exercise: Now the same for CCCCc1ncc(CC(NC(=O)CC)C(=O)O)n1Cc1ccccc1Cl (configuration not stated)
Solution: 203 to 205 °C

Exercise: Can you handle `c1cc2c(c3c1CCN3)CCS2` next?
Solution: 170 to 172 °C

Exercise: Follow-up entry: `Nc1ccc(Cl)cc1NC1CCN(Cc2ccccc2)CC1`
Solution: 108 °C

Exercise: For COc1ccccc1C(OC)c1cccnn1 (configuration not stated) then?
Solution: 110 to 111 °C

Your task in this section: give melting point for each listed record.
1. O=C(O)CSc1nccn1Cc1cc(F)cc(F)c1
2. CCCC[Si](C)(C)CCSCCCNC(=O)n1cc(F)c(=O)[nH]c1=O
3. CC(=O)N1CCc2cc(Cl)ccc21
4. COC(=O)NCCOC(=O)C(C)Oc1ccc(Oc2cnc3cc(Cl)ccc3n2)cc1 (configuration not stated)

Solution:
101 to 103 °C
83.5 to 84 °C
115 to 116 °C
103 to 104 °C

* * *

Kindly state melting point for each of the entries shown.

Take a look at these entries with their results.
Exercise: Could you tell me which melting point is on file for `CCC(Cc1c(C)cc(C(C)(C)C)c(O)c1C)(C(=O)OC1CC(C)(C)NC(C)(C)C1)C(=O)OC1CC(C)(C)NC(C)(C)C1` ?
Solution: 175 °C

Exercise: Query CCCC(O)(C(=O)Nc1cc(Br)nc(OC)c1)C(C)C (centres undefined) next
Solution: 116 °C

Exercise: Try this molecule too: `COc1cc(OC)c2c(=O)[nH]c(-c3cc(C)c(OCCO)c(C)c3)cc2n1`
Solution: 225 °C

Exercise: Continue with O=c1[nH]nc(CN2CC[C@H](OCc3cc(C(F)(F)F)cc(C(F)(F)F)c3)[C@H](c3ccccc3)C2)[nH]1 (relative stereo)
Solution: 89 to 91 °C

Exercise: Next molecule: Cc1ccc(S(=O)(=O)N2CCCC2C(=O)NC(Cc2ccc(OCC(=O)OCc3ccccc3)cc2)C(=O)O)cc1 (centres undefined)
Solution: 79 to 81 °C

Exercise: Please do the same for `CCCCCCCCCCCCCCCCCCCCCCC(NC(C)=O)(C(=O)OCC)C(=O)OCC` as well.
Solution: 79 to 80 °C

Would you mind listing melting point for each of the following molecules?
1. COC(=O)c1ccccc1-c1ccc(CNc2nc(=O)[nH]c3ccccc23)cc1
2. Cn1cc(C(=O)NCc2ccc(Cl)cc2)c(=O)c2cc(CN3CCOc4ccccc43)ccc21
3. CCCCC(CC)COc1cc2c3c(cccc3c1Br)C(=O)c1ccccc1-2 (centres undefined)

Solution:
140 to 160 °C
193 to 194 °C
85 to 88 °C

* * *

Assignment: determine reported melting point for the given molecules.

Answered examples (3):
Exercise: Sample `O=c1[nH]nc2n1C=Cc1cc(Cl)ccc1C2` — what was its melting point?
Solution: 281 to 283 °C

Exercise: Next: `CCNC1CN(c2c(F)cc3c(=O)c(C(=O)O)cn(-c4nc(N)c(F)cc4F)c3c2Br)C1`
Solution: 195 to 196 °C

Exercise: Now give it for CCOc1ccc(C(=O)NCc2ccc3c(c2)CN(C2CCC(=O)NC2=O)C3=O)cc1 (centres undefined) too.
Solution: 269 to 271 °C

The following molecules each have a reported value; give each one's melting point.
1. O=C(O)CCCn1c(-c2ccc3c(c2)OCO3)nc2ccccc21
2. CCn1c(COc2ccc(NC(=O)c3cc(F)cc(N4CCOCC4)c3)c3ccccc23)n[nH]c1=O
3. CCOC(=O)C1=C(CO)NC(C(F)(F)F)=C(C(=O)OCC)C1c1cccc2nonc12 (centres undefined)
4. CC(C)N1CC2(COc3ccccc3OC2)OC1=O
5. Cc1ncc([N+](=O)[O-])n1-c1nccc2[nH]c(=O)ccc12
6. COc1ccc(N2CCN(c3c(C)c(C)c4c(c3C)CC(C)(CN3CCC5(CC3)OCCO5)O4)CC2)cc1 (centres undefined)
7. CC(C)CCCC(C)C1CCC2C3CC=C4CC(OCCO)CCC4(C)C3CCC12C (centres undefined)

Solution:
1: 177 to 180 °C; 2: 260 °C; 3: 110 to 111 °C; 4: 118 to 120 °C; 5: > 300 °C; 6: 165 to 167 °C; 7: 92 to 95 °C

* * *

Please go through the items and note down their melting point.

Hey, can you go through the list below and give me melting point for every item?
1. CC(C)(C)c1ccc(CCC(CO)CC2CCCCC2)cc1NC(=O)CC1c2ccccc2Oc2ccccc21 (stereo not given)
2. C[C@H](c1ccccc1)N1CC(=NO)C2(CCC2)C1=O
3. CCCc1csc(/C=C/c2cccc(NCCCC(=O)O)c2)n1
4. O=CNc1nc(NC2CC2)nc(N2CCOCC2)n1
5. CN1OCCN(c2cc(Cl)cc(Cl)c2)C1=O
6. CCOC(=O)c1cn(Cc2ccc(F)cc2)c2ccc(C(C)=O)cc2c1=O

Solution:
1. 130 to 131 °C
2. 203 to 208 °C
3. 115 to 116 °C
4. 288 °C
5. 105 to 106 °C
6. 207 to 209 °C

* * *

quantityName: melting point

Respectfully, I request melting point for each entry included below.
1. CC1CN(S(=O)(=O)c2cc(C#N)ccc2Sc2cc(Cl)ccc2Cl)CC(C)N1 (stereo unspecified)
2. O=C(c1sc(-c2nc3ccccc3[nH]2)nc1-c1ccco1)C1CCOCC1
3. COc1ccc(C)cc1NC(=O)Nc1ccc2c(c1)C=CN(C(=O)Nc1c(C)cccc1Cl)C2
4. C#Cc1cccc(Nc2ncnc3[nH]cc(-c4ccc(C)cc4)c23)c1
5. C[C@@H](NC(=O)c1sc(-c2ccc(Cl)cc2)cc1N)[C@](O)(Cn1cncn1)c1ccc(F)cc1F
6. OC(CCN1CCC(c2ccc(F)cc2)CC1)c1ccc(Cl)cc1 (stereo unspecified)

Solution:
["160 to 190 °C", "250 to 251 °C", "216 to 218 °C", "245 to 247 °C", "107 to 111 °C", "108 to 110 °C"]

Hey, can you go through the list below and give me melting point for every item?
1. CCOC(=O)C(=O)N(CCBr)N=Cc1ccccc1
2. CCc1n[nH]c(CC)c1CCCCCCOc1ccc(O)cc1Cl
3. Nn1c(C(F)(F)F)cc(=O)n(-c2cc(Oc3ncccc3[N+](=O)[O-])c(Cl)cc2F)c1=O
4. CC(C)n1nc(-c2nc(C#N)c(N)nc2-c2ccccc2)ccc1=O
5. Cc1ccc(Cl)c(Nc2ccccc2C(N)=S)c1Cl
6. C(=C\c1nc(COc2cccc(CCCn3ccnc3)c2)co1)/c1ccccc1
7. OC1CCN(c2nnc(Cl)c3ccccc23)CC1
8. C[C@@H](N[C@@H](Cc1c[nH]c2ccccc12)C(=O)O)[C@H](NC(=O)[C@@H](N)CC(N)=O)C(=O)O

Solution:
1. 56 to 57 °C
2. 109 to 111 °C
3. 90 to 96 °C
4. 231 to 233 °C
5. 134 to 136 °C
6. 86 to 87 °C
7. 139 to 142 °C
8. 65 to 70 °C

Take each entry in turn and give its melting point.
1. O=C1c2cccnc2C(=O)N1Cc1ccccc1
2. Cc1c(Cc2ccncc2)nnc(Nc2ccc(Cl)cc2)c1C
3. O=C1N[C@@H](C=Cc2ccccc2)[C@H]1O
4. Clc1ccc(CN2CC=C(/C=C/c3ccccc3)CC2)cc1Cl

Solution:
163 to 165 °C
196 to 199 °C
143 to 144 °C
123 to 125 °C

Lab note: each compound below needs its melting point filled in.
1. CN1CC=C(c2c[nH]c3ccc(Oc4ccccn4)cc23)CC1
2. CN1CCC(=C2c3ccccc3COc3ccc(C(=O)O)cc32)CC1

Solution:
["240 to 245 °C", "205 to 210 °C"]

* * *

Exercise: for every item that follows, state its recorded melting point.

Exercise: Quick one: melting point of `CCCCCCCCCCCCCCCCCCCCCC(=O)Nc1ccc(NC(=O)NS(=O)(=O)c2ccc3ccccc3c2)cc1` ?
Solution: 179 °C

Exercise: Further, for `O=C(O)COc1cccc2c1CCc1sc(SCC=Cc3ccccc3)nc1-2` ?
Solution: 171 to 172 °C

Exercise: Same question for `CC(C)(C)c1ccc2oc(-c3ccc(O)cc3)cc2c1` please.
Solution: 172 to 174 °C

Exercise: Again, but for `COc1ccc(-c2nc(N)ncc2-c2ccc(=O)[nH]n2)cc1`
Solution: 142 °C

Exercise: Now consider `CCOC(=O)CNC(=O)CC(=O)CCl` .
Solution: 96 to 97 °C

# batch: return melting point for each of the 4 molecules below
1. COc1cccc2c1CCC1=C2CC(=O)N1
2. N#Cc1cccc(Cn2cnc(C(N)=O)c2N)c1
3. Cc1nc(C)nc(NC(=O)NS(=O)(=O)c2ccccc2Cl)n1
4. CC(C)(C)OC(=O)Nc1cc(N2CCOC2=O)c(-c2ccc(F)cc2)cc1[N+](=O)[O-]

Solution:
1: 220 to 222 °C; 2: 246 to 247 °C; 3: 115 to 118 °C; 4: 201 °C

Exercise: Which melting point reading was recorded for the molecule `CCOC(=O)C=Cc1cc([N+](=O)[O-])ccc1OCCCc1ccccc1` ?
Solution: 117 to 118 °C

// data source = a melting point compilation (Tetko et al.; mined from patent text by program, amines drawn as free bases though some values may be those of a salt)
